systemName: kappa opioid receptor (KOR) (Homo sapiens, UniProt P41145)
Sequence (P41145 whole entry): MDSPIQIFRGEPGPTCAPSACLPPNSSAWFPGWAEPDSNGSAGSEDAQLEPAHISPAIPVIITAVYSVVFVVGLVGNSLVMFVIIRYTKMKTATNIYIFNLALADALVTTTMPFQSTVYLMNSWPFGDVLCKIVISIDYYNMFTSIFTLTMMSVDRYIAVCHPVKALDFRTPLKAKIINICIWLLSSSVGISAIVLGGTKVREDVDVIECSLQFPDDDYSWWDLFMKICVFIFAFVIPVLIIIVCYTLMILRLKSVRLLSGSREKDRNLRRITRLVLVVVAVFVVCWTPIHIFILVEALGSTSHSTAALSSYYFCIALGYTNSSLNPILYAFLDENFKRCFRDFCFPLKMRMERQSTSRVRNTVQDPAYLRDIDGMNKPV
experimentSummary: SPA-based GTP-γ-S binding assay, antagonist mode, kappa
Assay type: biochemical
conditionSet: antagonist assay against U69593 300 nM; Kb by Cheng-Prusoff equation; read-out: In Vitro Antagonism GTP-γ-S Kb Kappa
propertyMeasured: log10 of Kb (log10 of the value in nM)
Log scale reminder: Kb in nM, then log10 taken.

Cc1ccccc1CNCCc1ccc(Oc2ccc(C(N)=O)cn2)c(Cl)c1 [Example 476]: 0.53

Documented log10 of Kb of NC(=O)c1ccc(Oc2ccc(CCNCc3cccc(Cl)c3)cc2Cl)nc1 [Example 479] : 0.84

Query CC(C)CCNCc1ccc(Oc2ccc(C(N)=O)cn2)cc1 [Example 271] yields log10 of Kb of -0.40

Sure, the documented log10 of Kb for NC(=O)c1ccc(Oc2ccc(CCNCc3cccc(F)c3)cc2Cl)nc1 [Example 478] is 0.65

GET /value?item= NC(=O)c1ccc(Oc2ccc(CNCCc3cccs3)cc2)nc1 [Example 253] &field=log10 of Kb returns -0.45

Entry under test: NC(=O)c1ccc(Oc2ccc(CNCCc3cccc(F)c3)cc2)nc1 [Example 256] . Its log10 of Kb was -0.05

Memo: NC(=O)c1ccc(Oc2ccc(CCNCc3ccccc3)cc2Cl)nc1 [Example 475] , reported log10 of Kb: 0.90

====

systemName: delta opioid receptor (DOR) (Homo sapiens)
Sequence (P41143 whole entry): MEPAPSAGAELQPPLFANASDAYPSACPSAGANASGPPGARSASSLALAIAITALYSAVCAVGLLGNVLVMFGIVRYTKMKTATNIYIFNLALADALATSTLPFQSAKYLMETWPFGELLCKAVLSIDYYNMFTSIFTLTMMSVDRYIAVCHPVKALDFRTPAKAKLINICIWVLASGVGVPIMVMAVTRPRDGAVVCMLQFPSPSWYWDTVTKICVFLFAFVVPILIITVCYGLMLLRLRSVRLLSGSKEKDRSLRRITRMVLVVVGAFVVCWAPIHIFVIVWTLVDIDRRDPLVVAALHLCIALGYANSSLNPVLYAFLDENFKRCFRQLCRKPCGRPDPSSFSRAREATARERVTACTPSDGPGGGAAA
experimentSummary: SPA-based GTP-γ-S binding assay, antagonist mode, delta
Format: biochemical
conditionSet: antagonist assay against DPDPE 30 nM; Kb by Cheng-Prusoff equation; read-out: In Vitro Antagonism GTP-γ-S Kb Delta
propertyMeasured: Kb (nM)
Return type: number; implicit unit nM.

Field: example entries. Status: answers known.
CC(C)CCNCc1ccc(Oc2ccc(C(N)=O)cn2)cc1 [Example 271]: 4.4
NC(=O)c1ccc(Oc2ccc(CCNCc3ccccc3)cc2Cl)nc1 [Example 475]: 17.5
NC(=O)c1ccc(Oc2ccc(CCNCc3cccc(Cl)c3)cc2Cl)nc1 [Example 479]: 30.1
NC(=O)c1ccc(Oc2ccc(CNCCc3cccs3)cc2)nc1 [Example 253]: 0.708
NC(=O)c1ccc(Oc2ccc(CNCCc3cccc(F)c3)cc2)nc1 [Example 256]: 0.677

Item: Cc1ccccc1CNCCc1ccc(Oc2ccc(C(N)=O)cn2)c(Cl)c1 [Example 476] | Kb: 8.9

For NC(=O)c1ccc(Oc2ccc(CCNCc3cccc(F)c3)cc2Cl)nc1 [Example 478] the molecule record lists Kb as 5.78

====

systemName: mu opioid receptor (MOR) (Homo sapiens)
Sequence (P35372 whole entry): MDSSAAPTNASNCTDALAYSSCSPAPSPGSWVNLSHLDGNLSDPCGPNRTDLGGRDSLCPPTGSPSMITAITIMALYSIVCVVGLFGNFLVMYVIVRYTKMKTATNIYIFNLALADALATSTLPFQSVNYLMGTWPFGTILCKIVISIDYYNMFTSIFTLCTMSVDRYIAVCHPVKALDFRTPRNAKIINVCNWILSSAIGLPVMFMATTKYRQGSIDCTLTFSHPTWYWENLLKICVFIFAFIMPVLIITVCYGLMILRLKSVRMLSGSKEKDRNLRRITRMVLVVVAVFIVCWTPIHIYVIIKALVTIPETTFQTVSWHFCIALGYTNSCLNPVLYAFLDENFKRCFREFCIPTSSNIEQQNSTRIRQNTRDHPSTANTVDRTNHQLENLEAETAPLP
experimentSummary: SPA-based GTP-γ-S binding assay, antagonist mode, mu
Format: biochemical
conditionSet: antagonist assay against DAMGO 1 micromolar; Kb by Cheng-Prusoff equation; read-out: In Vitro Antagonism GTP-γ-S Kb Mu
Could you label it YES if measured Kb is 0.4 nM or higher, and NO otherwise?

NC(=O)c1ccc(Oc2ccc(CNCCc3cccs3)cc2)nc1: NO
CC(C)CCNCc1ccc(Oc2ccc(C(N)=O)cn2)cc1: NO
NC(=O)c1ccc(Oc2ccc(CCNCc3ccccc3)cc2Cl)nc1: YES

Query: Check this compound for Kb at or above 0.4 nM: `NC(=O)c1ccc(Oc2ccc(CNCCc3cccc(F)c3)cc2)nc1`
Result: NO
